Value source: paper PMC12096669

# System: Mtb mc^27902 pMV261
# TEST_METHOD_NOTES: microbe, parasite or virus in culture
# Type: cell-based
# CONDITION_CONTEXT: Mycobacterium tuberculosis; mc^27902 pMV261; REMA; read-out: Mtb MIC95
Assignment: determine reported MIC for the given molecules.
One number for each entry, in mg/L.

The examples below pair each entry with its known result.
CC(=O)NC[C@H]1CN(c2ccc(N3CCOCC3)c(F)c2)C(=O)O1 [LZD, linezolid]	0.91
NNC(=O)c1ccncc1 [INH, isoniazid]	0.04
CC(C)CCOc1ccc(NC(=S)Nc2ccc(OCCC(C)C)cc2)cc1 [ISO, 4,4′-diisoamyloxydiphenylthiourea]	0.2
CC[C@@H](CO)NCCN[C@@H](CC)CO [EMB, Ethambutol]	1.99
CC(C)=CCC/C(C)=C/CNCCNC1C2CC3CC(C2)CC1C3 (centres unmarked) [SQ109]	0.33
CC(C)CCOc1ccc(NC(=S)NC2C3CC4CC(C3)CC2C4)cc1 (centres unmarked) [Ad-2-ISO]	2.88
CO[C@H]1/C=C/O[C@@]2(C)Oc3c(C)c(O)c4c(O)c(c(/C=N/N5CCN(C)CC5)c(O)c4c3C2=O)NC(=O)/C(C)=C\C=C\[C@H](C)[C@H](O)[C@@H](C)[C@@H](O)[C@@H](C)[C@H](OC(C)=O)[C@@H]1C [RIF, rifampicin]	0.04

// below: MIC requested for another molecule
Lab note: measured MIC of CC(C)CCOc1ccc(NC(=S)NC23CC4CC(CC(C4)C2)C3)cc1 [Ad-1-ISO] was 1.08

* * *

# Tested on: AC10 hybrid adult ventricular cardiomyocytes
# TEST_METHOD_NOTES: MTS cytotoxicity assay, cardiomyocytes
# Type: cell-based
# CONDITION_CONTEXT: Homo sapiens, AC10 cardiac, 96 h, read-out: MTS percentage survival @ 100 µM
Each record is given satisfied if its reported viability at 100 µM is strictly below 60%. Records at or above 60% are given not satisfied.

CC[C@@H](CO)NCCN[C@@H](CC)CO	not satisfied
CC(C)CCOc1ccc(NC(=S)Nc2ccc(OCCC(C)C)cc2)cc1	satisfied
CC(C)CCOc1ccc(NC(=S)NC2C3CC4CC(C3)CC2C4)cc1 (centres unmarked)	satisfied

Query: Is viability at 100 µM strictly under 60% for the entry CC(C)CCOc1ccc(NC(=S)NC23CC4CC(CC(C4)C2)C3)cc1 ?
Result: satisfied

Query: Is viability at 100 µM strictly under 60% for the entry NNC(=O)c1ccncc1 ?
Result: not satisfied
